molecular target: MCR-1 (Homo sapiens, UniProt Q01726); construct: expressed in transfected cells; host or cells: HEK 293; assay: Melanocortin receptor binding assay, competition with 125I-HP 467, HEK 293 cells expressing hMCR-1; conditions: inhibition of binding of 125I-HP 467, HEK 293 cells expressing MCR-1; TRG 2414 library; read-out: MC-1 IC50
Sequence (Q01726 whole entry): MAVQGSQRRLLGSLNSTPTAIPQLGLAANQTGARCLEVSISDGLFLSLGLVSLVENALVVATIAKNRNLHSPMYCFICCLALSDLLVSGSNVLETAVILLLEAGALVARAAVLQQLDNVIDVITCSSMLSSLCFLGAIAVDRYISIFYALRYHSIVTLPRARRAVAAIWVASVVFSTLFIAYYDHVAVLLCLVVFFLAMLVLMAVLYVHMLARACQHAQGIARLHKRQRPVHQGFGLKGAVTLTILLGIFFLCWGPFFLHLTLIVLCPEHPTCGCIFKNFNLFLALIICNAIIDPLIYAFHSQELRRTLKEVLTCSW
EXPERIMENTAL ENDPOINT: pIC50
Scale: negative log10 of molar concentration, which is what pIC50 denotes.

MOLECULE	pIC50
CCCOc1ccc(C2C(CNCc3cccc(OC)c3)c3ccccc3CN2CCCCC(CN)NCC(C)c2ccc(CC(C)C)cc2)cc1 (mixture of isomers)	5.09
NCC(CCCCN1Cc2ccccc2C(CNCc2ccccc2)C1c1cc(C(F)(F)F)cc(C(F)(F)F)c1)NCCc1ccccc1 (stereo not shown)	4.74
NCC(N)CCCCN1Cc2ccccc2C(CNC2CCCCCC2)C1c1ccc(Oc2ccccc2)cc1 (stereo not shown)	6.11
NCC(CCCCN1Cc2ccccc2C(CNC2CCCCC2)C1c1cc(C(F)(F)F)cc(C(F)(F)F)c1)NCc1ccccc1 (stereo not shown)	4.98
NCC(CCCCN1Cc2ccccc2C(CNC2CCCCC2)C1c1cccc(Oc2ccccc2)c1)NCc1ccccc1 (stereo not shown)	5.30
NCC(CCCCN1Cc2ccccc2C(CNC2CCCCC2)C1c1ccc(Oc2ccccc2)cc1)NCc1ccccc1 (stereo not shown)	5.85
COc1ccccc1CCNCC1c2ccccc2CN(CCCCC(CN)NCC(C)c2ccc(CC(C)C)cc2)C1c1ccc(Cl)cc1Cl (stereo not shown)	4.93
NCC(N)CCCCN1Cc2ccccc2C(CNCc2ccccc2C(F)(F)F)C1c1cccc(Oc2ccccc2)c1 (mixture of isomers)	4.97
CCOc1ccccc1CNCC1c2ccccc2CN(CCCCC(CN)NCc2ccccc2)C1c1ccc(Oc2ccccc2)cc1 (stereo not shown)	5.67
COc1ccc(CNCC2c3ccccc3CN(CCCCC(CN)NCc3ccccc3)C2c2cc(C(F)(F)F)cc(C(F)(F)F)c2)cc1 (stereo not shown)	4.84

If you can, please state the reported pIC50 value of COc1ccc(CCNCC2c3ccccc3CN(CCCCC(CN)NCCc3ccccc3)C2c2ccc(Oc3ccccc3)cc2)cc1 (mixture of isomers) .
5.09

// next record COc1ccccc1CCNCC1c2ccccc2CN(CCCCC(N)CN)C1c1ccc(Oc2ccccc2)cc1 (mixture of isomers)
6.84

// next record CCCOc1ccc(C2C(CNCCc3ccccc3OC)c3ccccc3CN2CCCCC(CN)NCC(C)c2ccc(CC(C)C)cc2)cc1 (stereo not shown)
4.80

Taken from patent US6608082B1.
